B1: Caulobacter ParB omega fusion; a variant is named by its letters at X, in order, B8GW30 (parent)
chain: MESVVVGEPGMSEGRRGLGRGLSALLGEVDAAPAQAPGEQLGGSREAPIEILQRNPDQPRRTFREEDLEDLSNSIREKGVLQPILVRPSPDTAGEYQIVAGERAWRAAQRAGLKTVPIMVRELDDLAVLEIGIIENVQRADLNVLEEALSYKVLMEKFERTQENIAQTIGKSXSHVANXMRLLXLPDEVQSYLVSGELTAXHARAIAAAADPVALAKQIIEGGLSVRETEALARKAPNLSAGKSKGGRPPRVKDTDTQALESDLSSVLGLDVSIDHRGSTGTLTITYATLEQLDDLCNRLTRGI

Variants of: B1
Assay: one-hybrid fitness for binding NBS DNA (the Noc-binding site; scaled: cognate 1, non-cognate 0); higher = stronger binding
Settings: with NBS DNA site
In all, about 81,000 sequences were measured (“one-hybrid fitness for binding NBS DNA”: median about -0.1, highest 2% from about 0.36 on). This excerpt belongs to a sample that is enriched for the highest values.
experimental_readout: one-hybrid fitness for binding NBS DNA

QTHP | ≤ 0.2
NEES | ≤ 0.2

Query: Answer with the recorded one-hybrid fitness for binding NBS DNA of RYPY only.
Reply: ≤ 0.2

Query: Assign one-hybrid fitness for binding NBS DNA to the following record: RHSR
Reply: 0.448

Query: Name the recorded one-hybrid fitness for binding NBS DNA of the item RKLW in your answer.
Reply: ≤ 0.2

Query: Read off the recorded one-hybrid fitness for binding NBS DNA for VSQV
Reply: ≤ 0.2

Query: Output measured one-hybrid fitness for binding NBS DNA for this item: DNAG
Reply: ≤ 0.2

Query: Output measured one-hybrid fitness for binding NBS DNA for this item: FEGS
Reply: ≤ 0.2

Where do these numbers come from? They come from a collection of fitness landscapes (doi:10.1016/j.celrep.2020.107928).
